From: paper PMC4177392

# assayed-system: CYP2C9 (Homo sapiens)
# Sequence (P11712 whole entry): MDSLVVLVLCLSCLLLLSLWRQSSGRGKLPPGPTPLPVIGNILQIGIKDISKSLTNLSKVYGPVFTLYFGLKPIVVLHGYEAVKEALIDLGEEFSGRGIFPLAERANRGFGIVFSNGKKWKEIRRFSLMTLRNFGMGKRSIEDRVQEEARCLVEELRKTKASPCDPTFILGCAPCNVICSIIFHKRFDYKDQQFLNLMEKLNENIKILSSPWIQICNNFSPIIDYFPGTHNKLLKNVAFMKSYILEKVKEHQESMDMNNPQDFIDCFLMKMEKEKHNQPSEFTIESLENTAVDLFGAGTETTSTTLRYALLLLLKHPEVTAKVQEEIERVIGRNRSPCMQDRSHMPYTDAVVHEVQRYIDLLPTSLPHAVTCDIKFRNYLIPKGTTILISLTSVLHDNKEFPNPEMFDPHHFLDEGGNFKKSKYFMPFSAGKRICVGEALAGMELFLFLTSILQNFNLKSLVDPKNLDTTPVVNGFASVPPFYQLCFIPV
quantity-name: pIC50
One number for each entry, as −log10 of the molar value.

Using the record for `CCCCC[C@H](O)CC(=O)CCc1ccc(O)c(OC)c1` , report its pIC50.
4.56

* * *

# protocol-notes: Caco-2 permeability assay
# measurement-conditions: human, Caco-2, pH 7.4, Mass Balance (recovery), B→A
quantity-name: recovery at 120 min, 10 µM (%)
One number for each entry, in %.

Using the record for CCCCC[C@H](O)CC(=O)CCc1ccc(O)c(OC)c1 [6G, 6-gingerol] , report its recovery at 120 min, 10 µM.
77

* * *

# protocol-notes: Caco-2 permeability assay
# measurement-conditions: human, Caco-2, pH 7.4, Papp, A→B, n = 3, mean ± SD
quantity-name: Papp at 120 min, 10 µM

Using the record for `CCCCC[C@H](O)CC(=O)CCc1ccc(O)c(OC)c1` , report its Papp at 120 min, 10 µM.
> 10 ×10⁻⁶ cm/s

* * *

# assayed-system: UniProt:P33261
# Sequence (P33261 whole entry): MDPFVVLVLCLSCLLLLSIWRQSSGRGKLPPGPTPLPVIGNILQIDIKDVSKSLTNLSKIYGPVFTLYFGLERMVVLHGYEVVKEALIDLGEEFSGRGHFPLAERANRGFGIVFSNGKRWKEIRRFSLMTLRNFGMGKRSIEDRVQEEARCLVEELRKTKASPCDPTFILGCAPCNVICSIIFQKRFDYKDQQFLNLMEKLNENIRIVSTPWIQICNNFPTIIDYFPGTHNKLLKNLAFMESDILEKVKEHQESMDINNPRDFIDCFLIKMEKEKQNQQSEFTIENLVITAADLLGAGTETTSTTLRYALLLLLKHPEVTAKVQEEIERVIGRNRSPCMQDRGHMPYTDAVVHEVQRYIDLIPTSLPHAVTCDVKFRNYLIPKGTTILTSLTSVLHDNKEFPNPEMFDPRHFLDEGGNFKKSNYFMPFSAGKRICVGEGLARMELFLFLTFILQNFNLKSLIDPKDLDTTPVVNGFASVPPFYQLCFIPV
# protocol-notes: CYP2C19 inhibition in human liver microsomes (substrate (S)-mephenytoin)
# Format: in vitro ADME
quantity-name: IC50 (µM)
Answers are plain numbers, in µM.

Give recorded IC50 with UniProt:P33261 for the following compound: `CCCCC[C@H](O)CC(=O)CCc1ccc(O)c(OC)c1`
10.9

* * *

# assayed-system: CYP2A6 (Homo sapiens, UniProt P11509)
# Sequence (P11509 whole entry): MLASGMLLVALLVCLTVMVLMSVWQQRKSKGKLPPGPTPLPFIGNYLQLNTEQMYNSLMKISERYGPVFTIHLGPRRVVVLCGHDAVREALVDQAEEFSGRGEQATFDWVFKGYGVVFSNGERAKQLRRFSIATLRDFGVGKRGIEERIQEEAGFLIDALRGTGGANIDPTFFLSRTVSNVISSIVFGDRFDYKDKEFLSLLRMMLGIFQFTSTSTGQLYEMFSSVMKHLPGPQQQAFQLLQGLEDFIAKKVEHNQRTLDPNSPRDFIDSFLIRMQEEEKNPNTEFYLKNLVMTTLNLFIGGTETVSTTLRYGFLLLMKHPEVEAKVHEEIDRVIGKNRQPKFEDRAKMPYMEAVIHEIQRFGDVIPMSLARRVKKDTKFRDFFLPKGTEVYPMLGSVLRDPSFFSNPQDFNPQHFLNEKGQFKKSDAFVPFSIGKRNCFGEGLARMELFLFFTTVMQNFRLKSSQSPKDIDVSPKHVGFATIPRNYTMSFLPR
pIC50: −log10 of the molar value.
quantity-name: pIC50

Using the record for CCCCC[C@H](O)CC(=O)CCc1ccc(O)c(OC)c1 [6G, 6-gingerol] , report its pIC50.
< 4.01

* * *

# protocol-notes: Caco-2 permeability assay
# measurement-conditions: human, Caco-2, pH 7.4, Papp, B→A, n = 3, mean ± SD
quantity-name: Papp at 120 min, 10 µM

Using the record for `CCCCC[C@H](O)CC(=O)CCc1ccc(O)c(OC)c1` , report its Papp at 120 min, 10 µM.
> 10 ×10⁻⁶ cm/s

* * *

# assayed-system: CYP2D6 (Homo sapiens, UniProt P10635)
# Sequence (P10635 whole entry): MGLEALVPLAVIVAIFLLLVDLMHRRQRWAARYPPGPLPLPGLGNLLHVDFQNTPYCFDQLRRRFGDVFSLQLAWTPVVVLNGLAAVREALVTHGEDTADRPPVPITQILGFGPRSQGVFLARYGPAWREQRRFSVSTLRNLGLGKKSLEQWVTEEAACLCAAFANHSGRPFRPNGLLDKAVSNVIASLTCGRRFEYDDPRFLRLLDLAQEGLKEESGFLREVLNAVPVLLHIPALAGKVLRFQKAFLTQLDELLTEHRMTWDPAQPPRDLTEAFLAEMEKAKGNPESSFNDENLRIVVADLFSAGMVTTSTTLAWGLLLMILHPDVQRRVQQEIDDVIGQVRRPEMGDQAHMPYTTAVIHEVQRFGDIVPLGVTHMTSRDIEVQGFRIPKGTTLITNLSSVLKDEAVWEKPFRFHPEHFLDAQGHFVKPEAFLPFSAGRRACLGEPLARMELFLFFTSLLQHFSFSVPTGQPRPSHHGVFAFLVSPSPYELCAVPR
pIC50: −log10 of the molar value.
quantity-name: pIC50

Using the record for CCCCC[C@H](O)CC(=O)CCc1ccc(O)c(OC)c1 [6G, 6-gingerol] , report its pIC50.
< 4.01

* * *

# assayed-system: UniProt P05177
# Sequence (P05177 1-516): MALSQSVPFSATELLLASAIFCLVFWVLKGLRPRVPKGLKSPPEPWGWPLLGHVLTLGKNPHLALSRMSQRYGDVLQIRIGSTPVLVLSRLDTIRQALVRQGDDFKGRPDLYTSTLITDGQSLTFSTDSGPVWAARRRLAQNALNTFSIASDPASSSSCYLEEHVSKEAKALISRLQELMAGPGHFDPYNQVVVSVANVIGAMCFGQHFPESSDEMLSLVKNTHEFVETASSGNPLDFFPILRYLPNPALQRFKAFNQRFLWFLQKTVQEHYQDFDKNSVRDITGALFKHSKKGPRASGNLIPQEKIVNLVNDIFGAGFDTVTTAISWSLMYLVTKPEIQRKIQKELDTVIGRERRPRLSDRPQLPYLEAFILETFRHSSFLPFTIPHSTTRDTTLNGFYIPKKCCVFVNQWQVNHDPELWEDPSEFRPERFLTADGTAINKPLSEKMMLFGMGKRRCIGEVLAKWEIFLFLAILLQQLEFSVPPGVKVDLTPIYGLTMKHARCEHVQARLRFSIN
quantity-name: pIC50
Give bare numbers, as −log10 of the molar value.

Using the record for `CCCCC[C@H](O)CC(=O)CCc1ccc(O)c(OC)c1` , report its pIC50.
4.72

* * *

# assayed-system: CYP3A4 (Homo sapiens)
# Sequence (P08684 2-503): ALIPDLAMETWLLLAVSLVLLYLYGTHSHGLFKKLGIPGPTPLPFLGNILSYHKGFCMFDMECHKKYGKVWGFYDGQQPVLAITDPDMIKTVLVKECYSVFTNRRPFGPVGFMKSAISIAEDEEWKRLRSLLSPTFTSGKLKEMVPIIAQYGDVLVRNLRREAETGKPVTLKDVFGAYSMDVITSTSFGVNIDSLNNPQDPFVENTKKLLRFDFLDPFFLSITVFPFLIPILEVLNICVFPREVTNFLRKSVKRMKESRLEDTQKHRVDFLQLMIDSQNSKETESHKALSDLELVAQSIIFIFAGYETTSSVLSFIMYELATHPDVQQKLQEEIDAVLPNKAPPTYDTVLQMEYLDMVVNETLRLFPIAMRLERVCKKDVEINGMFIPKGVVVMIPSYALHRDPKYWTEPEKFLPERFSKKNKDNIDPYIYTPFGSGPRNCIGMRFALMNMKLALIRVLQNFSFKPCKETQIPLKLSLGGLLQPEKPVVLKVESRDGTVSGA
# protocol-notes: CYP3A4 inhibition in human liver microsomes (substrate midazolam)
# Assay type: in vitro ADME
quantity-name: IC50

Using the record for `CCCCC[C@H](O)CC(=O)CCc1ccc(O)c(OC)c1` , report its IC50.
> 98.5 µM
